# ASSAY_NAME: Tissue distribution after single oral administration in rats
# Type: in vivo, rat
# REPORTED_CONDITIONS: male, Wistar, rat, prostate, po, 100 mg/kg, prostate, 100 mg/kg PO, male Wistar rats, 24 h, individual animals; read-out: Prostate concentration
OBSERVATION_TYPE: concentration at 24 h (ng/mL)
Numbers only, in ng/mL.

The reported concentration at 24 h of the compound COc1cc(Nc2ncnc(Nc3cc4c(cn3)NC(=O)C(C)(C)O4)n2)cc(OC)c1OC was 21.6

###

# ASSAY_NAME: Pharmacokinetics after single oral administration to rats
# Type: in vivo, rat
# REPORTED_CONDITIONS: male, Wistar, rat, plasma, oral, 100 mg/kg, Table S7, 100 mg/kg PO, male Wistar rats, 1 h, mean of Rat#7-12; read-out: Plasma concentration, Mean
OBSERVATION_TYPE: concentration at 1 h (ng/mL)
Give bare numbers, in ng/mL.

The reported concentration at 1 h of the molecule COc1cc(Nc2ncnc(Nc3cc4c(cn3)NC(=O)C(C)(C)O4)n2)cc(OC)c1OC [MT-SYK-03] was 870

###

# ASSAY_NAME: Pharmacokinetics after single oral administration to rats
# Assay type: in vivo, rat
# REPORTED_CONDITIONS: male, Wistar, rat, plasma, oral, 200 mg/kg, Table S8, 200 mg/kg PO, male Wistar rats, 0.25 h, individual Rat#13-18; read-out: Plasma concentration
OBSERVATION_TYPE: concentration at 0.25 h (ng/mL)
Answers are plain numbers, in ng/mL.

The reported concentration at 0.25 h of the molecule COc1cc(Nc2ncnc(Nc3cc4c(cn3)NC(=O)C(C)(C)O4)n2)cc(OC)c1OC [MT-SYK-03] was 489

###

# ASSAY_NAME: Pharmacokinetics after single oral administration to rats
# Format: in vivo, rat
# REPORTED_CONDITIONS: male, Wistar, rat, plasma, oral, 100 mg/kg, Table S6, 100 mg/kg PO, male Wistar rats, 2 h, mean of Rat#1-6; read-out: Plasma concentration, Mean
# Method: Experiments were performed at ChemPartner, Shanghai, China and approved by Institutional Ethics Committee (IEC) of ChemPartner. Male Wistar 10–12 weeks old rats with body weights of 185–220 g and male New Zealand rabbits with body weights of 2.0–2.3 kg were purchased from Shanghai SLAC Laboratory Animal Co., Ltd. MT-SYK-03 was administered to the three groups of rats (six rats per group) via oral gavage at 10 mL/kg concentration, and in rabbits 5 mL/kg concentration. […]
OBSERVATION_TYPE: concentration at 2 h (ng/mL)
Numbers only, in ng/mL.

The reported concentration at 2 h of the compound COc1cc(Nc2ncnc(Nc3cc4c(cn3)NC(=O)C(C)(C)O4)n2)cc(OC)c1OC was 371

###

# ASSAY_NAME: Tissue distribution after single oral administration in rats
# Assay type: in vivo, rat
# REPORTED_CONDITIONS: rat; muscle, 100 mg/kg PO, male Wistar rats, Estimated Value
OBSERVATION_TYPE: AUC(0-inf) (ng·h/mL)
One number for each entry, in ng·h/mL.

The reported AUC(0-inf) of the molecule COc1cc(Nc2ncnc(Nc3cc4c(cn3)NC(=O)C(C)(C)O4)n2)cc(OC)c1OC was 3150

###

# ASSAY_NAME: Pharmacokinetics after single oral administration to rats
# Assay type: in vivo, rat
# REPORTED_CONDITIONS: male, Wistar, rat, plasma, oral, 100 mg/kg, Table S6, 100 mg/kg PO, male Wistar rats, 0.25 h, mean of Rat#1-6; read-out: Plasma concentration, Mean
OBSERVATION_TYPE: concentration at 0.25 h (ng/mL)
Give bare numbers, in ng/mL.

The reported concentration at 0.25 h of the compound COc1cc(Nc2ncnc(Nc3cc4c(cn3)NC(=O)C(C)(C)O4)n2)cc(OC)c1OC was 245

###

# ASSAY_NAME: Tissue distribution after single oral administration in rats
# Assay type: in vivo, rat
# REPORTED_CONDITIONS: rat; spleen, 100 mg/kg PO, male Wistar rats, Estimated Value; read-out: Terminal t1/2 (converted)
OBSERVATION_TYPE: half-life

The reported half-life of the compound COc1cc(Nc2ncnc(Nc3cc4c(cn3)NC(=O)C(C)(C)O4)n2)cc(OC)c1OC was 3.81 h

###

# ASSAY_NAME: Tissue distribution after single oral administration in rats
# Type: in vivo, rat
# REPORTED_CONDITIONS: rat; prostate, 100 mg/kg PO, male Wistar rats, Estimated Value; read-out: AUC24/AUC24 (plasma)
OBSERVATION_TYPE: Kp
Numbers only.

The reported Kp of the compound COc1cc(Nc2ncnc(Nc3cc4c(cn3)NC(=O)C(C)(C)O4)n2)cc(OC)c1OC was 2.05

###

# ASSAY_NAME: Pharmacokinetics after single oral administration to rats
# Type: in vivo, rat
# REPORTED_CONDITIONS: male, Wistar, rat, plasma, po, 30 mg/kg, rats, single oral 30 mg/kg; read-out: AUCinf
OBSERVATION_TYPE: AUC(0-inf) (ng·h/mL)
Answers are plain numbers, in ng·h/mL.

The reported AUC(0-inf) of the compound COc1cc(Nc2ncnc(Nc3cc4c(cn3)NC(=O)C(C)(C)O4)n2)cc(OC)c1OC was 2420

###

# ASSAY_NAME: Pharmacokinetics after single oral administration to rats
# Type: in vivo, rat
# REPORTED_CONDITIONS: male, Wistar, rat, plasma; rats, single oral 200 mg/kg
OBSERVATION_TYPE: k el (s⁻¹)
Give bare numbers, in s⁻¹.

The reported k el of the compound COc1cc(Nc2ncnc(Nc3cc4c(cn3)NC(=O)C(C)(C)O4)n2)cc(OC)c1OC was 4.72e-05

###

# TARGET_ENTITY: MLK1/MAP3K9 (Homo sapiens)
# Sequence (P80192 whole entry): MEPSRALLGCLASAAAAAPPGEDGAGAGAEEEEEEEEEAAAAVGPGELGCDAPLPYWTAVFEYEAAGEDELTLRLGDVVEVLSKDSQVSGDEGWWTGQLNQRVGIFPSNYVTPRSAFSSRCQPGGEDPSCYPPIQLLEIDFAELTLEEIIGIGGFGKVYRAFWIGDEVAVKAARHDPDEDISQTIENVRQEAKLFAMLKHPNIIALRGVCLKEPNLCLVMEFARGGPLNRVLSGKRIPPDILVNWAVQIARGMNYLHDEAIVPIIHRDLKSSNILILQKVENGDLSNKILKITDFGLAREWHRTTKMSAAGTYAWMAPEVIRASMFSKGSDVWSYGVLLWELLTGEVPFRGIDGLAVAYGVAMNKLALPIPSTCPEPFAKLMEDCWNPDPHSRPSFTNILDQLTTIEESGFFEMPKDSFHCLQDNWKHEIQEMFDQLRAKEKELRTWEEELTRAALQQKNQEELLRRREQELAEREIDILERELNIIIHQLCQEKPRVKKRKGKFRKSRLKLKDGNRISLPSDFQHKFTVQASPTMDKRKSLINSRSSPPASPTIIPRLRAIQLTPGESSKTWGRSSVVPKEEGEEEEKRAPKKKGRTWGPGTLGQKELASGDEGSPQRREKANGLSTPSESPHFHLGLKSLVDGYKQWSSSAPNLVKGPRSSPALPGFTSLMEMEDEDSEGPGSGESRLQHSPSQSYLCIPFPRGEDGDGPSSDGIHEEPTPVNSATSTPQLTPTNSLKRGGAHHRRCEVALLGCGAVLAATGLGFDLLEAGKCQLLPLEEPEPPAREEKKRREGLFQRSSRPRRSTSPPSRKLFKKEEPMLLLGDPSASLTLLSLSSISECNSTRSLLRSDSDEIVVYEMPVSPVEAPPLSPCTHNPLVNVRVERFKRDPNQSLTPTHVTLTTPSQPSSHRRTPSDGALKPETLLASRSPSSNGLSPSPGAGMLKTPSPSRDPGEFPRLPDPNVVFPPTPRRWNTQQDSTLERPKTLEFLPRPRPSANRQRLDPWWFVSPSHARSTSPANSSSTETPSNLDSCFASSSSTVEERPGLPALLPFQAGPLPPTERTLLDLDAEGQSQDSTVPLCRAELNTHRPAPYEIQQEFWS
# ASSAY_NAME: Kinase selectivity profile assay
# REPORTED_CONDITIONS: 10-dose mode, threefold serial dilution from 10 μM
OBSERVATION_TYPE: IC50 (nM)
Answers are plain numbers, in nM.

The reported IC50 of the molecule COc1cc(Nc2ncnc(Nc3cc4c(cn3)NC(=O)C(C)(C)O4)n2)cc(OC)c1OC was 7.8

###

# ASSAY_NAME: Pharmacokinetics after single oral administration to rats
# Type: in vivo, rat
# REPORTED_CONDITIONS: male, Wistar, rat, plasma, oral, 100 mg/kg, Table S6, 100 mg/kg PO, male Wistar rats, 4 h, mean of Rat#1-6
# Experimental: Experiments were performed at ChemPartner, Shanghai, China and approved by Institutional Ethics Committee (IEC) of ChemPartner. Male Wistar 10–12 weeks old rats with body weights of 185–220 g and male New Zealand rabbits with body weights of 2.0–2.3 kg were purchased from Shanghai SLAC Laboratory Animal Co., Ltd. MT-SYK-03 was administered to the three groups of rats (six rats per group) via oral gavage at 10 mL/kg concentration, and in rabbits 5 mL/kg concentration. […]
OBSERVATION_TYPE: concentration at 4 h (ng/mL)
One number for each entry, in ng/mL.

The reported concentration at 4 h of the compound COc1cc(Nc2ncnc(Nc3cc4c(cn3)NC(=O)C(C)(C)O4)n2)cc(OC)c1OC [MT-SYK-03] was 175

###

# ASSAY_NAME: Tissue distribution after single oral administration in rats
# Format: in vivo, rat
# REPORTED_CONDITIONS: male, Wistar, rat, joint, po, 100 mg/kg, joint, 100 mg/kg PO, male Wistar rats, 8 h, mean; read-out: Joint concentration, Mean
# Experimental: Experiments were performed at ChemPartner, Shanghai, China and approved by Institutional Ethics Committee (IEC) of ChemPartner. Male Wistar 10–12 weeks old rats with body weights of 185–220 g and male New Zealand rabbits with body weights of 2.0–2.3 kg were purchased from Shanghai SLAC Laboratory Animal Co., Ltd. MT-SYK-03 was administered to the three groups of rats (six rats per group) via oral gavage at 10 mL/kg concentration, and in rabbits 5 mL/kg concentration. […]
OBSERVATION_TYPE: concentration at 8 h (ng/mL)
Give bare numbers, in ng/mL.

The reported concentration at 8 h of the molecule COc1cc(Nc2ncnc(Nc3cc4c(cn3)NC(=O)C(C)(C)O4)n2)cc(OC)c1OC was 663

###

# ASSAY_NAME: Pharmacokinetics after single oral administration to rats
# Assay type: in vivo, rat
# REPORTED_CONDITIONS: male, Wistar, rat, plasma, po, 200 mg/kg, Table S8, 200 mg/kg PO, male Wistar rats, plasma, individual Rat#13-18; read-out: Cmax
# Description: Experiments were performed at ChemPartner, Shanghai, China and approved by Institutional Ethics Committee (IEC) of ChemPartner. Male Wistar 10–12 weeks old rats with body weights of 185–220 g and male New Zealand rabbits with body weights of 2.0–2.3 kg were purchased from Shanghai SLAC Laboratory Animal Co., Ltd. MT-SYK-03 was administered to the three groups of rats (six rats per group) via oral gavage at 10 mL/kg concentration, and in rabbits 5 mL/kg concentration. […]
OBSERVATION_TYPE: Cmax (ng/mL)
Numbers only, in ng/mL.

The reported Cmax of the molecule COc1cc(Nc2ncnc(Nc3cc4c(cn3)NC(=O)C(C)(C)O4)n2)cc(OC)c1OC [MT-SYK-03] was 1180
